molecular target: E. coli CsgA (Escherichia coli); construct: made in house; host or cells: E. coli NEB 3016 slyD::kan, pET11d; test: In vitro ThioflavinT assay of CsgA aggregation (CsgA ThT Assay); assay type: biochemical; conditions: read-out: CsgA ThT Assay (10 μM CsgA) % Control AUC at 1005 minutes, 25 μM, mean AUC as % of DMSO control; CsgA 10 μM, black plates; compound 25 μM; 1005 minutes
Measured remaining activity at 25 µM, listed per entry for reference.
Give the quantity in %, number only.

Use these answered entries as a reference point.
# molecule, scale.unit, remaining activity at 25 µM
records = [
    ("CN(C)CCN1CC(C(=O)O)n2c(c(-c3cccc(C(F)(F)F)c3)c(Cc3cccc4ccccc34)cc2=O)S1(=O)=O (stereo not shown)", "%", 95),
    ("CN1CC(C(=O)O)n2c(c(-c3cccc(C(F)(F)F)c3)c(Cc3cccc4ccccc34)c(N3CCNCC3)c2=O)S1(=O)=O (stereo not shown)", "%", 90),
    ("O=C(O)c1c(-c2ccccc2)sc2c(-c3cccc(C(F)(F)F)c3)c(Cc3cccc4ccccc34)cc(=O)n12", "%", 81),
]

API: the following record is the query input.
Form field: reported remaining activity at 25 µM of Nc1c(Cc2cccc3ccccc23)c(-c2cccc(C(F)(F)F)c2)c2n(c1=O)C(C(=O)O)CS2(=O)=O (stereo not shown)
73

* * *

Entries and their remaining activity at 25 µM
molecular target: E. coli CsgA (Escherichia coli); construct: made in house; host or cells: E. coli NEB 3016 slyD::kan, pET11d; assay: In vitro ThioflavinT assay of CsgA aggregation (CsgA ThT Assay); assay type: biochemical; details: read-out: CsgA ThT Assay (10 μM CsgA) % Control AUC at 1005 minutes, 25 μM (activity range), CsgA 10 μM, black plates; compound 25 μM; 1005 minutes; class symbol

Consider the worked cases shown below.
# molecule, remaining activity at 25 µM
data = [
    ("O=C(O)[C@H]1CS(=O)(=O)c2c(-c3cccc(C(F)(F)F)c3)c(Cc3cccc4ccccc34)cc(=O)n21 (single isomer, unassigned) [Compound 010b]", "> 60%"),
    ("CC(=O)Nc1ccc(Cc2cc(=O)n3c(c2-c2cccc(C(F)(F)F)c2)S(=O)(=O)N(C)CC3C(=O)O)c2ccccc12 (stereo not shown) [Compound 048]", "> 60%"),
    ("O=C(O)[C@@H]1CNS(=O)(=O)c2c(-c3cccc(C(F)(F)F)c3)c(Cc3cccc4ccccc34)cc(=O)n21 (single isomer, unassigned) [Compound 009a]", "31 to 60%"),
]

Look at this molecule and give its reported remaining activity at 25 µM. O=C(O)C1CSc2c(-c3cccc(C(F)(F)F)c3)c(C(F)(F)c3cccc4ccccc34)nc(=O)n21 (stereo not shown) [Compound 063]
> 60%

* * *

Each item that follows carries a reported remaining activity at 100 µM.
target: E. coli CsgA (Escherichia coli); construct: made in house; host or cells: E. coli NEB 3016 slyD::kan, pET11d; assay: In vitro ThioflavinT assay of CsgA aggregation (CsgA ThT Assay); assay type: biochemical; settings: read-out: CsgA ThT Assay (2 μM CsgA) % Control Bmax 100 μM, activity range, class symbol; CsgA 2 μM, white plates; compound 100 μM

Solved cases below.
# molecule, reported.measurement
measured = [
    ("O=C(O)C1CN(Cc2ccccc2)c2c(-c3cccc(C(F)(F)F)c3)c(Cc3cncc4ccccc34)c(Cl)c(=O)n21 (centres unmarked) [Compound 210]", "> 60%"),
    ("CCCN1CC(C(=O)O)n2c1c(-c1cccc(C(F)(F)F)c1)c(Cc1cccc3ccccc13)c(Cl)c2=O (centres unmarked) [Compound 162]", "31 to 60%"),
    ("O=C(O)C1CN(CC2CCOCC2)c2c(-c3cccc(C(F)(F)F)c3)c(Cc3cccc4ccccc34)c(Cl)c(=O)n21 (centres unmarked) [Compound 182]", "> 60%"),
    ("CC(C)N1CC(C(=O)O)n2c1c(-c1cccc(C(F)(F)F)c1)c(Cc1cccc3ccccc13)c(Cl)c2=O (centres unmarked) [Compound 179]", "31 to 60%"),
    ("O=C(O)C1CN(Cc2ccccc2)c2c(-c3cccc(C(F)(F)F)c3)c(Cc3ccccc3)c(Cl)c(=O)n21 (centres unmarked) [Compound 214]", "> 60%"),
]

So what's the measured remaining activity at 100 µM for this one? O=C(O)C1CN(Cc2cccnc2)c2c(-c3cccc(C(F)(F)F)c3)c(Cc3cccc4ccccc34)c(Cl)c(=O)n21 (centres unmarked) [Compound 169]
> 60%

And the next one, O=C(O)C1CN(C2CCCCC2)S(=O)(=O)c2c(-c3cccc(C(F)(F)F)c3)c(Cc3cccc4ccccc34)c(NC3CCCC3)c(=O)n21 (centres unmarked) [Compound 131] ?
> 60%

* * *

biological target: E. coli CsgA (Escherichia coli); construct: made in house; host or cells: E. coli NEB 3016 slyD::kan, pET11d; experiment: In vitro ThioflavinT assay of CsgA aggregation (CsgA ThT Assay); format: biochemical; settings: read-out: CsgA ThT Assay (2 μM CsgA) % Control Bmax 100 μM, activity range, class symbol; CsgA 2 μM, white plates; compound 100 μM
Entries annotated with measured remaining activity at 100 µM

Use these answered entries as a reference point.
# compound, reported.measurement
data = [
    ("CC(C)N1CC(C(=O)O)n2c(c(-c3cccc(C(F)(F)F)c3)c(Cc3cccc4ccccc34)c(C(N)=O)c2=O)S1(=O)=O (stereo not drawn)", "11 to 31%"),
    ("O=C(O)C1CN(Cc2ccccc2)c2c(-c3cccc(C(F)(F)F)c3)c(Cc3cccc4ccncc34)c(Cl)c(=O)n21 (stereo not drawn)", "31 to 60%"),
    ("O=C(O)C1CN(CCCO)c2c(-c3cccc(C(F)(F)F)c3)c(Cc3cccc4ccccc34)c(Cl)c(=O)n21 (stereo not drawn)", "> 60%"),
    ("COc1ccc(CN2CC(C(=O)O)n3c2c(-c2cccc(C(F)(F)F)c2)c(Cc2cccc4ccccc24)c(Cl)c3=O)cc1 (stereo not drawn)", "> 60%"),
    ("O=C(O)C1CN(CCC2CCCCC2)c2c(-c3cccc(C(F)(F)F)c3)c(Cc3cccc4ccccc34)c(Cl)c(=O)n21 (stereo not drawn)", "11 to 31%"),
]

Turning to the following compound.
What remaining activity at 100 µM value was documented for this compound, N#Cc1cccc(CN2CC(C(=O)O)n3c2c(-c2cccc(C(F)(F)F)c2)c(Cc2cccc4ccccc24)c(Cl)c3=O)c1 (stereo not drawn) ?
31 to 60%

* * *

// reported remaining activity at 25 µM for each item listed
target: E. coli CsgA (Escherichia coli, UniProt P28307); construct: made in house; host or cells: E. coli NEB 3016 slyD::kan, pET11d; test: In vitro ThioflavinT assay of CsgA aggregation (CsgA ThT Assay); format: biochemical; conditions: read-out: CsgA ThT Assay (2 μM CsgA) % Control Bmax 25 μM, mean Bmax as percentage of DMSO control; CsgA 2 μM, white plates; compound 25 μM
Sequence (P28307 23-151): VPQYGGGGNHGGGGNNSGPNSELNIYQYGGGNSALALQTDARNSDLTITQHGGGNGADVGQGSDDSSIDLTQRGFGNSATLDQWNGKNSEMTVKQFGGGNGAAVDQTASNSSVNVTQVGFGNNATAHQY
Give just the number in %; leave the unit off.

Illustrative cases are given below, each with its answer.
# compound, test.system, remaining activity at 25 µM [%]
records = [
    ("O=C(O)C1CN(Cc2ccccn2)c2c(-c3cccc(C(F)(F)F)c3)c(Cc3cccc4ccccc34)c(Cl)c(=O)n21 (stereo not shown)", "E. coli CsgA (Escherichia coli, UniProt P28307)", 72),
    ("O=C(O)C1CN(CCC2CCCCC2)c2c(-c3cccc(C(F)(F)F)c3)c(Cc3cccc4ccccc34)c(Cl)c(=O)n21 (stereo not shown)", "E. coli CsgA (Escherichia coli, UniProt P28307)", 51),
    ("O=C(O)[C@@H]1CN(Cc2ccccc2)c2c(-c3cccc(C(F)(F)F)c3)c(Cc3cccc4ccccc34)c(Cl)c(=O)n21 (single isomer, unassigned) [Compound 004a]", "E. coli CsgA (Escherichia coli, UniProt P28307)", 64),
    ("O=C(O)C1CN(CC2CCCC2)S(=O)(=O)c2c(-c3cccc(C(F)(F)F)c3)c(Cc3cccc4ccccc34)c(NC3CCCC3)c(=O)n21 (stereo not shown)", "E. coli CsgA (Escherichia coli, UniProt P28307)", 60),
    ("O=C(O)C1CN(Cc2ccccc2)c2c(-c3ccc(Br)cc3)c(Cc3cccc4ccccc34)c(Cl)c(=O)n21 (stereo not shown)", "E. coli CsgA (Escherichia coli, UniProt P28307)", 70),
    ("CCc1c(Cc2cccc3ccccc23)c(-c2cccc(C(F)(F)F)c2)c2n(c1=O)C(C(=O)O)CN2Cc1ccc(OC)cc1 (stereo not shown)", "E. coli CsgA (Escherichia coli, UniProt P28307)", 54),
    ("N#Cc1cccc(CN2CC(C(=O)O)n3c2c(-c2cccc(C(F)(F)F)c2)c(Cc2cccc4ccccc24)c(Cl)c3=O)c1 (stereo not shown)", "E. coli CsgA (Escherichia coli, UniProt P28307)", 76),
    ("O=C(O)C1CN(Cc2ccc(CO)cc2)c2c(-c3cccc(C(F)(F)F)c3)c(Cc3cccc4ccccc34)c(Cl)c(=O)n21 (stereo not shown)", "E. coli CsgA (Escherichia coli, UniProt P28307)", 62),
    ("COc1ccc(CN2CC(C(=O)O)n3c2c(-c2cccc(C(F)(F)F)c2)c(Cc2cccc4ccccc24)c(Cl)c3=O)cc1 (stereo not shown)", "E. coli CsgA (Escherichia coli, UniProt P28307)", 87),
    ("O=C(O)C1CN(Cc2cccc(O)c2)c2c(-c3cccc(C(F)(F)F)c3)c(Cc3cccc4ccccc34)c(Cl)c(=O)n21 (stereo not shown)", "E. coli CsgA (Escherichia coli, UniProt P28307)", 67),
]

Please provide the recorded remaining activity at 25 µM for CCCN1CC(C(=O)O)n2c(c(-c3cccc(C(F)(F)F)c3)c(Cc3cccc4ccccc34)c(C3CC3)c2=O)S1(=O)=O (stereo not shown) , tested on E. coli CsgA (Escherichia coli, UniProt P28307).
76

Please do the same for NC(=O)c1c(Cc2cccc3ccccc23)c(-c2cccc(C(F)(F)F)c2)c2n(c1=O)C(C(=O)O)CN(CCCCO)S2(=O)=O (stereo not shown) as well.
32

Again, but for CCCN1CC(C(=O)O)n2c(c(-c3cccc(C(F)(F)F)c3)c(Cc3cccc4ccccc34)c(OC3CCCC3)c2=O)S1(=O)=O (stereo not shown)
77

All figures here come from patent US20230131899A1.
